# Test system: OVCAR-8 ovarian
# protocol_details: NCI-60 one-dose screen, 48 h (100 = growth as untreated, 0 = no growth, -100 = all killed)
# assay_context: 10 µM unless noted
The panel holds about 83,000 compounds, 20% with a hit somewhere; the sample as a whole holds those more often.
So I've got a bunch of molecules here, and I need their growth values.
# unit: % | format: bare number

Entry under review: Cc1ccc(-c2nn(-c3ccccc3)cc2C=C2C(=O)ON=C2C(C)C)cc1 . Reported growth? 59.7

Entry under review: CN(C)CCCn1c2c(c3ncccc3c1=O)C(=O)c1ccccc1-2 . Reported growth? 31.3

Entry under review: CCc1n(Cc2ccc3ccccc3c2)cc[n+]1Cc1ccc2ccccc2c1 . Reported growth? -4.85

Entry under review: N#Cc1c(NC(=O)c2ccccc2)sc2c1CCC(=O)C2 . Reported growth? 14.5

Entry under review: CO[C@]12C=C/C(=C(/C(=O)OCc3cccnc3)C(=O)CCCCCCCC[C@@]3(OC)C=C/C(=C(/C(=O)OCc4cccnc4)C(=O)CCCCCCCC1)O3)O2 . Reported growth? 19.9

---

# Test system: COLO 205 colon
# protocol_details: NCI-60 one-dose screen, 48 h
# assay_context: 10 µM unless noted
This is part of a sample that, as a whole, favours compounds with a hit. Of some 83,000 tested, about 20% had one in any assay. Active and inactive are the calls of the source. Rule for the calls: active = growth percent below 10; inactive = the rest.
Give your call using only these classes: class 1 = active, class 0 = inactive

Please state the recorded outcome for this compound: CCN(CC)c1ccc(/C=C/C(=O)c2ccc(Nc3nc(Nc4ccccc4)nc(Nc4ccccc4)n3)cc2)cc1 class 0

Please state the recorded outcome for this compound: C=C(C)[C@@H]1CC[C@]2(C(=O)NCCNCCN)CC[C@]3(C)[C@H](CC[C@@H]4[C@@]5(C)C/C(=C/c6ccncc6)C(=O)C(C)(C)[C@@H]5CC[C@]43C)[C@@H]12 class 0

Please state the recorded outcome for this compound: O=C(NCCCCNC(=O)OCc1ccc2c(Cl)cc(Cl)c(O)c2n1)OCc1ccc2c(Cl)cc(Cl)c(O)c2n1 class 0

Please state the recorded outcome for this compound: CN1CCN(C(=O)c2ccc(NC(=O)Nc3ccc(-c4nc(N5CCOCC5)c5cccn5n4)cc3)cc2)CC1 class 1

Please state the recorded outcome for this compound: Cc1cccc(Cl)c1NC(=O)c1ccc2nc(NC(=O)NCCN(C)C)sc2c1 class 0

Please state the recorded outcome for this compound: CCO/C=N/C1=C(C#N)C(c2ccc(OC)cc2)c2sc3c(F)cccc3c2O1 (stereo not drawn) class 0

Please state the recorded outcome for this compound: CN(C)c1ccc(Nc2cc(-c3cccc(OC(F)(F)F)c3)nc3ccc(N4CCCC4)cc23)cc1 class 0

Please state the recorded outcome for this compound: CC1=Nc2cnc(Nc3ccc(OCCN4CCCCC4)cc3)nc2Nc2ccccc21 class 0

---

# System: ACHN renal
# protocol_details: NCI-60 one-dose screen, 48 h (100 = growth as untreated, 0 = no growth, -100 = all killed)
# assay_context: 10 µM unless noted
About 83,000 compounds went through this panel and 20% of them were active in at least one assay; those are over-represented in the sample as a whole.
Class definitions on growth: low-valued: < 20%; mid-valued: ≥ 20% and < 50%; high-valued: ≥ 50%

Which band does O=C1Nc2ccccc2/C1=C\c1nc(-c2ccccc2F)n2ccccc12 fall in? low-valued

Which band does Cc1ccc(-n2c(=S)[nH]c3sc4c(c3c2=O)CCC(=O)C4)cc1 fall in? mid-valued

Which band does CN(C)CCCC1(c2ccc(F)cc2)OCc2cc(-c3cncc4ccccc34)ccc21 (stereo not given) fall in? mid-valued

Which band does Nc1c(C(=O)Nc2ccccc2Cl)sc2nc3c(cc12)C(O)CCC3 (stereo not given) fall in? high-valued

Which band does CO/N=C(/C)c1ccc(NC(=O)CSc2nnc(-c3ccncc3)n2-c2ccccc2)cc1 fall in? low-valued

Which band does N#CC1=C(N)Oc2c(sc3c(Br)cccc23)C1c1ccc(F)cc1 (stereo not given) fall in? mid-valued

Which band does O=C(Nn1c2c(sc1=NCc1ccccc1)C(=O)c1ccccc1C2=O)c1cc2ccc1CCc1ccc(cc1)CC2 fall in? mid-valued

Which band does O=C(Nc1ncc(Cc2ccc(Cl)c(C(F)(F)F)c2)s1)c1ccc2nnsc2c1 fall in? mid-valued

Which band does O=c1oc2c(cnc3ccccc32)cc1-c1ccsc1 fall in? high-valued

Which band does Clc1ccc2c(c1)N(c1ncnc3ccc(-c4cnc5[nH]ncc5c4)cc13)CC2 fall in? low-valued

Which band does N#Cc1cccc(-c2c(-c3ccc4ccccc4c3)oc3ccccc3c2=O)c1 fall in? high-valued

Which band does COc1ccc(/C=C2\COc3ccc(O)c(O)c3C2=O)cc1 fall in? low-valued

Which band does O=C(CCCCC1CCSS1)Nc1ncnc2n[nH]c(-c3ccc(Oc4ccccc4)cc3)c12 (stereo not given) fall in? high-valued

Which band does C#CCOc1ccc2ncnc(Nc3cccc(NC(=O)C=C)c3)c2c1 fall in? mid-valued

Which band does Cc1nnc(NC(=O)c2nc(S(=O)(=O)Cc3ccc(F)cc3)ncc2Cl)s1 fall in? high-valued

Which band does COc1ccc(C(=O)C2C(c3ccc(OC)cc3)CN(C)C23C(=O)Nc2ccccc23)cc1 (stereo not given) fall in? high-valued

Which band does COc1ccc2[nH]cc(-c3nc(-c4cn(C)c5c(Cl)nccc45)cs3)c2c1 fall in? mid-valued

Which band does CCCCCC(=O)OCC(=O)O[C@@H]1C[C@]2(C(C)C)O[C@@]1(C)[C@@H]1CC[C@@H](C)[C@H]1[C@@H]2OC(=O)/C=C/c1ccccc1 fall in? low-valued

Which band does O=C(O)CCCN1C(=O)/C(=C/C(Cl)=C/c2ccccc2)SC1=S fall in? low-valued

src = PubChem BioAssay (NCI)
